All figures here come from the supplement of paper PMC7380943.

- System: CLZ3 (HCA2 human fibroblast dual HR-NHEJ reporter)
- assay explanation: HR repair efficiency (tdTomato+ cells) relative to control (log10 fold); higher = more homologous recombination
- experimental parameters: 5 µM; doxycycline 0.5 ug/mL
Reported HR repair efficiency (log10) values follow for various compounds

Q. Fill in HR repair efficiency (log10) for O=C(O)/C=C/c1ccc(O)c(O)c1 [Caffeic Acid] tested with CLZ3 (HCA2 human fibroblast dual HR-NHEJ reporter).
A. 0.156

###

- Tested on: CLZ3 (HCA2 human fibroblast dual HR-NHEJ reporter);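 further: compound given one day before doxycycline, which switches on I-SceI endonuclease expression to create double-strand breaks within the integrated reporter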
- assay explanation: HR repair efficiency (tdTomato+ cells) relative to control (log10 fold); higher = more homologous recombination
- experimental parameters: 5 µM; doxycycline 0.5 ug/mL
parameter measured: HR repair efficiency (log10)
Form field (numeric): enter value without unit.

compound | HR repair efficiency (log10)
C[C@@H]1CCCCCCCCCCCCC(=O)C1 | 0.229

Q. Return the recorded HR repair efficiency (log10) value; entry: `COc1ccc2c(c1OC)CN(C)CCc1cc3c(cc1C(=O)C2)OCO3`
A. 0.04

Q. Return the recorded HR repair efficiency (log10) value; entry: C[C@@H]1CC[C@@]2(OC1)O[C@H]1C[C@H]3[C@@H]4CC=C5C[C@@H](O[C@@H]6O[C@H](CO)[C@@H](O)[C@H](O)[C@H]6O)CC[C@]5(C)[C@H]4CC[C@]3(C)[C@H]1[C@@H]2C [Diosgenin glucoside]
A. 0.0102

Q. Return the recorded HR repair efficiency (log10) value; entry: `C[C@@H]1O[C@@H](OC[C@H]2O[C@@H](Oc3cc(O)c4c(=O)cc(-c5ccc(O)cc5)oc4c3)[C@H](O[C@@H]3O[C@@H](C)[C@H](O)[C@@H](O)[C@H]3O)[C@@H](O)[C@@H]2O)[C@H](O)[C@H](O)[C@H]1O`
A. 0.0603

Q. Return the recorded HR repair efficiency (log10) value; entry: `C[C@H]1[C@H](C)CC[C@]2(C(=O)O)CC[C@]3(C)C(=CC[C@@H]4[C@@]5(C)C[C@@H](O)[C@H](O)[C@@](C)(CO)[C@@H]5[C@H](O)C[C@]43C)[C@H]12`
A. 0.143
